Data origin, for the record: PubChem BioAssay (NCI)

- Test system: MCF7 breast
- assayInfo: NCI tumour cell line growth inhibition, 48 h
propertyName: TGI (µM)

1) Clc1nc(Cl)c2ncn(Cc3cccc(Cn4cnc5c(Cl)nc(Cl)nc54)c3)c2n1 | 37.4
2) COc1ccc2nc3c([N+](=O)[O-])ccc4c3c(c2c1)NCCN4CCO | 3.19
3) COc1cc(OC)cc(N(CCNC(C)C)c2ccc3ncc(-c4cnn(C)c4)nc3c2)c1 | 24.3

* * *

- Test system: KM12 colon
- assayInfo: NCI tumour cell line growth inhibition, 48 h
propertyName: TGI

1. Cn1cc(C2=C(c3cn(CCCCN)c4ccccc34)C(=O)NC2=O)c2ccccc21 | > 25 µM
2. COc1ccc(OC)c(/C(C)=N/NC(N)=S)c1 | > 100 µM
3. CCOC(=O)C1(C/C=C(/C)Cl)CCCC1=O (stereo not given) | > 100 µM
4. C=C1C(=O)O[C@H]2C[C@@H]1CC/C(C)=C/CC/C(C)=C/CC[C@H]2C | 44.4 µM
5. CC(=O)[C@@]1(C)CC2(CCN(C)CC2)OC1C (stereo not given in full) | > 100 µM
6. CCC[CH2][Sn]1([CH2]CCC)[O]CC(Cc2ccccc2)[O]1 (stereo not given) | 14.4 µM
7. O=C1NC(SSC2=NNC3(C(=O)N2)c2ccccc2-c2ccccc23)=NNC12c1ccccc1-c1ccccc12 | > 10 µM
8. CCC12CCCN(Cc3ccccc3)C1c1c([nH]c3ccccc13)C(C(=O)OC)C2 (stereo not given) | > 10 µM
9. CC(C)CC(NC(=O)c1cccc(O)c1O)C(=O)NCc1cc(CNC(=O)C(CC(C)C)NC(=O)c2cccc(O)c2O)cc(CNC(=O)C(CC(C)C)NC(=O)c2cccc(O)c2O)c1 (stereo not given) | 41.9 µM
10. COC(=O)[C@@H](C)C[C@H](Cc1ccccc1)NC(=O)c1csc(CC[C@H](C(C)C)N(C)C(=O)[C@@H](NC(=O)[C@H]2CCCCN2C)C(C)C)n1 | > 33.3 µM
11. Cn1c(=O)c(C(=O)Nc2nc(C34CC5CC(CC(C5)C3)C4)cs2)c(O)c2ccccc21 | > 100 µM
12. O=C(/C=C/c1ccc(O)cc1)c1ccc2c(c1)OCO2 | 33.7 µM
13. O=[N+]([O-])C1CC/C(=N/O)c2nonc21 (stereo not given) | > 10 µM
14. COc1cc(C#Cc2ccc(=O)oc2C#Cc2ccccc2)cc(OC)c1OC | 44.8 µM
15. Nc1ccccc1C(=O)CC1OC(=O)c2ccccc21 (stereo not given) | > 100 µM
16. [Cl-].[O-]/N=C(\c1ccccc1)c1ccccn1.[O-]/N=C(\c1ccccc1)c1ccccn1.[O-]/N=C(\c1ccccc1)c1ccccn1.[Sm+3] | > 100 µM
17. OC(c1cc2ccccc2o1)c1cc2ccccc2s1 (stereo not given) | > 10 µM
18. CCc1cc(Cc2cc(Cl)c(NC(=O)C(=O)C3NC(=O)NC3=O)c(CC)c2)cc(Cl)c1NC(=O)C(=O)C1NC(=O)NC1=O (stereo not given) | > 100 µM
19. CCOC(=O)c1ccc(Nc2c3c(nc4ccccc24)CCCC3)cc1 | > 100 µM
20. C=C(c1ccc2nc(NC(=O)OC)[nH]c2c1)c1cccs1 | > 100 µM

* * *

- Test system: UO-31 renal
- assayInfo: NCI tumour cell line growth inhibition, 48 h
Classify by measured TGI: 1 if it is equal to or exceeds 20 µM, -1 if it is smaller.

1) COc1ccc2c(c1)C(=O)c1c-2n(CCCN=[N+]=[N-])c(=O)c2cc(OC)c(OC)cc12 | 1
2) N[C@H](C(=O)O)[C@H]1ON=C(Cl)[C@@H]1O | 1
3) Cc1nn(-c2nc3ccccc3[nH]2)c(N)c1-c1ccc(Cl)cc1 | 1
4) Fc1ccc2[nH]cc(-c3nonc3-c3c[nH]c4ccc(Br)cc34)c2c1 | -1
5) COc1cccc(-c2nc3sccn3c2-c2ccnc(NCCCNS(=O)(=O)c3cccc(F)c3)c2)c1 | -1
6) CCOc1ccc2nc(SCc3nc4n(n3)S(=O)(=O)c3ccccc3N4C)sc2c1 | 1
7) CC(=O)OCCOCn1c2c(c(=S)[nH]c1=O)CCC2 | 1
8) C#CCOc1cccc(-c2ncnc3cc(NC(=O)CCl)ccc23)c1 | -1
9) CCOP(=O)(OCC)/C(C#N)=C/c1cn(C)cn1 | 1
10) COc1ccc(C(=O)/C=C/c2ccc(C)cc2)cc1OC | 1
11) Cc1cnc2sn(-c3ccc(Oc4ccccc4)cc3)c(=O)c2c1 | 1
12) COc1cccc(-c2cc(=O)c3cc(OC)ccc3[nH]2)c1 | 1
13) CCN(CC)CC1CCCCN1CC(=O)N1c2ccccc2NC(=O)CC1C (stereo not given) | 1
14) O=S(=O)(Nc1ccccc1Cl)c1ccc(-c2cnc(C3CC3)o2)cc1 | 1
15) COc1ccc2c(CCN)c(C(=O)O)[nH]c2c1 | 1
16) CO[C@H]1/C=C/O[C@@]2(C)Oc3c(C)c(O)c4c(c3C2=O)C(=O)C(/C=N/N(c2ccccc2)c2ccccc2)=C(NC(=O)/C(C)=C\C=C\[C@H](C)[C@H](O)[C@@H](C)[C@@H](O)[C@@H](C)[C@H](OC(C)=O)[C@@H]1C)C4=O | -1
17) Clc1nc(Cl)c2ncn(Cc3cccc(Cn4cnc5c(Cl)nc(Cl)nc54)c3)c2n1 | -1
18) O=c1[nH]c(=O)n(C2OC(COP(=O)(O)OP(=O)(O)OC3OC(CO)C(O)C(O)C3O)C(O)C2O)cc1F (stereo not given) | -1
19) CC[N+](CC)=c1sc2c(s1)C(c1ccc(Cl)cc1)Oc1ccc(Cl)cc1-2 (stereo not given) | -1

* * *

- System: SK-MEL-2 melanoma
- assayInfo: NCI tumour cell line growth inhibition, 48 h; in the data active means GI50 below about 0.43 µM; inactive means the rest
Outcomes: active, inactive

1) S=C(Nc1ccc(Br)cc1)Nc1ccc(Br)cc1 | inactive
2) O=C(CO[N+](=O)[O-])Nc1ccc(C(=O)/C=C/c2ccc(Cl)cc2)cc1 | inactive
3) COc1ccc(-c2cn[nH]c2-c2cc(OC)c3c(c2)OCO3)cc1 | active
4) Cc1ccc(-c2csc(/N=C3\C(=O)Nc4ccccc43)n2)cc1 | inactive
5) N[C@H](C(=O)O)[C@H]1ON=C(Cl)[C@@H]1O | inactive
6) C=C1C(O)C2C(=C(CCc3ccccc3)C13CC3)C(=O)C(C)(CO)C2O (stereo not given) | inactive
7) Cn1cc(C2=C(c3cn(CCCCN)c4ccccc34)C(=O)NC2=O)c2ccccc21 | inactive
8) CNC(=O)c1ccc(N2CCN(Cc3ccc4nc(C)c(=O)[nH]c4c3F)CC2)c(F)n1 | inactive
9) O=C(Nc1cccc(-n2ccc3c(NC(=O)c4ccccc4)nccc32)c1)Nc1cc(C(F)(F)F)cc(C(F)(F)F)c1 | inactive
10) O=S(=O)(Nc1ccccc1Cl)c1ccc(-c2cnc(C3CC3)o2)cc1 | inactive
11) COC(=O)c1c2c(c[n+]([O-])c1C)C(=O)C=CC2=O | inactive
12) Clc1nc(Cl)c2ncn(Cc3cccc(Cn4cnc5c(Cl)nc(Cl)nc54)c3)c2n1 | inactive
13) CCCNNC(=O)/C=C/c1ccc(CNCCc2c(C)[nH]c3ccccc23)cc1 | active
14) C[N-]c1nnnn1C.[Au+].c1ccc([PH+](c2ccccc2)c2ccccc2)cc1 | inactive
15) Fc1ccc2[nH]cc(-c3nonc3-c3c[nH]c4ccc(Br)cc34)c2c1 | inactive

* * *

- System: RXF 393 renal
- assayInfo: NCI tumour cell line growth inhibition, 48 h
// values below are reported GI50
propertyName: GI50

1. C#CCOc1cccc(-c2ncnc3cc(NC(=O)CCl)ccc23)c1 | 1.4 µM
2. Cc1nn(-c2nc3ccccc3[nH]2)c(N)c1-c1ccc(Cl)cc1 | 4.26 µM
3. COc1cc(/C=C2\C(=O)Nc3cc(C)c(O)cc32)cc(OC)c1OC | 3.46 µM
4. CNC(=O)c1ccc(N2CCN(Cc3ccc4nc(C)c(=O)[nH]c4c3F)CC2)c(F)n1 | 13.1 µM
5. C=C1C(=O)O[C@H]2[C@H]1CC/C(COC(=O)CSCCSCC(=O)OC/C1=C/CC[C@@]3(C)O[C@H]3[C@H]3OC(=O)C(=C)[C@@H]3CC1)=C\CC[C@@]1(C)O[C@@H]21 | 1.55 µM
6. COc1ccc(C(=O)/C=C/c2ccc(C)cc2)cc1OC | 12.2 µM
7. [Cl][Hg][Cl] | 18.2 µM
8. CCc1cccc(C)c1NC(=O)c1sc2nc3c(cc2c1N)CCCCC3 | 1.6 µM
9. Fc1ccc2[nH]cc(-c3nonc3-c3c[nH]c4ccc(Br)cc34)c2c1 | 2.85 µM
10. S=C(Nc1ccc(Br)cc1)Nc1ccc(Br)cc1 | > 100 µM

* * *

- System: SK-MEL-28 melanoma
- assayInfo: NCI tumour cell line growth inhibition, 48 h
Classify by measured TGI: T if it is equal to or exceeds 40 µM, F if it is smaller.

1) Oc1ccc(-c2nc(-c3cccnc3)c(-c3ccc(Cl)cc3)[nH]2)cc1O | F
2) CCN(Cc1cccc(F)c1)c1ccc(CO)c(Cl)c1 | T
3) CN(C)CCNC(=O)c1cccc2c(NCCN(C)C)c3ccccc3nc12 | F
4) CC(=O)[O][Ga]([Cl])[O]C(C)=O | T
5) CN1CCCC2(CCCc3ccccc32)C1 (stereo not given) | T
6) Cc1ccc(N=N/C(=N\NC(=O)c2ccc(C)cc2)c2ccc(N(CCC#N)CCC#N)cc2C)cc1 | T
7) CC(C)OP(=O)(OC(C)C)/C(I)=N/Nc1ccc([N+](=O)[O-])cc1 | T
8) COC(=O)c1c(O)ccc2c1c1c(n2Cc2ccccc2Cl)C(=O)c2ccccc2C1=O | F
9) CC(O)c1cc2c(s1)C(=O)c1sccc1C2=O (stereo not given) | F
